These measurements were taken from patent US7998940B2.

Test system: full length human vWF (SEQ ID NO 7)
Assay: dot blot KD determination and extent of binding, full length human vWF;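 also: dot blot binding of aptamers to full length human vWF across a protein titration, incubated 30 minutes at room temperature in 1x DPBS with BSA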
Settings: Phase 1 modification; full length human vWF, dot blot, 8 point protein titration; read-out: KD
Oligonucleotides are written 5' to 3', each unit as a sugar letter and its base; * is a phosphorothioate linkage, no mark a phosphodiester; rarer units and linkages stand in square brackets, end groups in braces. Plain capitals give the bases only. [invdT] = inverted (3'-3') thymidine; d = 2'-deoxy (DNA); m = 2'-O-methyl
Entries annotated with measured Kd
MEASUREMENT NAME: Kd

ARC1239: ARC1172 with composite 2'-O methyl replacements in the stem regions (dGdGdCdGdTdGdCdAdGdTdGmCmCdTdTdCdGdGmCdCdGdTdGdCdGdGdTdGdCdCdTdCdCdGdTdCdAdCdGdCdC[invdT]; aptamer) : 5 nM
ARC1207: ARC1172 with one residue replaced by 2'-O methyl residue (DNA dGdGdCdGdTdGdCdAdGdTdGdCdCmUdTdCdGdGdCdCdGdTdGdCdGdGdTdGdCdCdTdCdCdGdTdCdAdCdGdCdC[invdT]; aptamer) : 2 nM
ARC1231: ARC1172 with one residue replaced by 2'-O methyl residue (dGdGdCdGdTdGdCdAdGdTdGdCdCdTdTdCdGdGdCdCdGdTdGdCdGdGdTdGdCdCdTdCdCdGdTdCdAmCdGdCdC[invdT]; aptamer) : 1 nM
ARC1200: ARC1172 with one residue replaced by 2'-O methyl residue (DNA dGdGdCdGdTdGmCdAdGdTdGdCdCdTdTdCdGdGdCdCdGdTdGdCdGdGdTdGdCdCdTdCdCdGdTdCdAdCdGdCdC[invdT]; aptamer) : 5 nM
ARC1202: ARC1172 with one residue replaced by 2'-O methyl residue (DNA dGdGdCdGdTdGdCdAmGdTdGdCdCdTdTdCdGdGdCdCdGdTdGdCdGdGdTdGdCdCdTdCdCdGdTdCdAdCdGdCdC[invdT]; aptamer) : 0.4 nM
ARC1221: ARC1172 with one residue replaced by 2'-O methyl residue (dGdGdCdGdTdGdCdAdGdTdGdCdCdTdTdCdGdGdCdCdGdTdGdCdGdGdTmGdCdCdTdCdCdGdTdCdAdCdGdCdC[invdT]; aptamer) : 1 nM
ARC1197: ARC1172 with one residue replaced by 2'-O methyl residue (DNA dGdGdCmGdTdGdCdAdGdTdGdCdCdTdTdCdGdGdCdCdGdTdGdCdGdGdTdGdCdCdTdCdCdGdTdCdAdCdGdCdC[invdT]; aptamer) : 2 nM
